- experimentalTarget: human neuropeptide Y Y5 receptor (human) (UniProt Q15761)
- Sequence (Q15761 whole entry): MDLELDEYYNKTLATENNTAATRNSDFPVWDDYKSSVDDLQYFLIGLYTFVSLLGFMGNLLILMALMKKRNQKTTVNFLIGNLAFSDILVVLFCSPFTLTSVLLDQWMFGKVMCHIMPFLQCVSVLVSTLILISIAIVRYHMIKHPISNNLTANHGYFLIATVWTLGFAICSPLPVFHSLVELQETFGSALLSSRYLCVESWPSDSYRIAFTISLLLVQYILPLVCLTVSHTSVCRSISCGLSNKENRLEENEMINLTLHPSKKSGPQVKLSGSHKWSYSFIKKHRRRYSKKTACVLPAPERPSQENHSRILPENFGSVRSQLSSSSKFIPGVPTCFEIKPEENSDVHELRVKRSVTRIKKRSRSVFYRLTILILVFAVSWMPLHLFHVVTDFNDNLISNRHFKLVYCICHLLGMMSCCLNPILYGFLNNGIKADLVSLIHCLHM
- testSummary: radioligand binding; competition with [^3H]propionyl-pNPY (5 nM) at intact HEC-1B-hY5R cells, 23 ± 2 °C, buffer II (150 mM NaCl)
Where no end group is shown, it is not given here.
parameterMeasured: pKi

A selection of reference data follows.
RYRLRY-NH2 (also: Py-1 cyanine dye on the amine of a carbamoylated Arg in the ring, position not given here, cyclic, ring closure not given here, peptide part as in m6; structure drawn in Scheme 2; source: synthetic peptide: from precursor peptide 6 and the pyrylium dye Py-1 (14), preparative HPLC) [fluorescent ligand 18 (Py-1-labeled cyclic hexapeptide)] : 6.08
RYRLRY (N^α-succinyl; N^ω-[hex-5-ynylaminocarbonyl]-Arg at position 1; N^ω-[(aminobutyl)aminocarbonyl]-Arg at position 3; cyclized via the succinyl carboxylic group and the primary amino group of the carbamoylated arginine in position 3; C-terminal amide, printed in three-letter code for the linear precursor 10: N^α-succinyl-N^ω[hex-5-ynylaminocarbonyl]-Arg-Tyr-N^ω-[(aminobutyl)aminocarbonyl]Arg-Leu-Arg-Tyr-amide; 11 is its cyclized form; source: synthetic peptide (SPPS of linear peptide 10, cyclization in solution, preparative HPLC)) [cyclic peptide 11 (alkyne-functionalized precursor peptide)] : < 5.5

Notebook: RYRLRY (not fully specified; as 11; the alkyne of the carbamoylated arginine in position 1 joined by click chemistry (triazole) to the azido-functionalized pyridinium-type cyanine dye 15 (from Py-5); C-terminal amide, peptide chain as in 11, whose linear precursor 10 is printed in three-letter code at h-0020; 19 is made from 11 and dye 15; source: synthetic peptide: from 11 and the azido-functionalized dye 15 by copper(I)-catalyzed click reaction, preparative HPLC) [fluorescent ligand 19 (Py-5-labeled cyclic hexapeptide)] , pKi read as < 6

src = paper PMC11019746
